The reported measurements were obtained from PubChem BioAssay.

Assay: small-molecule binders of probe aInhba, primary screen, biochemical, small-molecule microarray, 635/667 nm fluorescence (AID 1148);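 further: score merges 667nm spot fluorescence with signal-to-noise for antibody binding to printed compounds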
Settings: higher = more signal
Categories are assigned from the measured composite z-score using these intervals: Low (below -0.1), Medium (-0.1 to below 0.02), High (0.02 or more)

Here's what some known entries look like.
# COMPOUND, CAT
data = [
    ("C=CCN1Cc2ccccc2C[C@@]2(N=C(c3ccc(OCCCO)cc3)O[C@H]2c2ccccc2)C1=O", "High"),
    ("COc1ccc([Si](C)(C)[C@@H]2[C@@H](CCO)O[C@]3(C(=O)N(Cc4cccc(N5C(=O)c6cccc7cccc5c67)c4)c4ccccc43)[C@H]2C)cc1", "Low"),
    ("O=C(O)[C@]1(Cc2ccccc2)N=C(c2ccc(OCCCO)cc2)O[C@@H]1c1ccccc1", "Low"),
    ("CC(C)(C)OC(=O)CC[C@@]1(C(=O)O)N=C(c2ccc(OCCCO)cc2)O[C@@H]1c1ccccc1", "Medium"),
    ("C=C[C@H](COC(C)=O)NS(=O)(=O)c1ccc(Br)cc1", "Medium"),
]

Task: Given `C=CC[C@@]12N=C(c3ccc(OCCCO)cc3)O[C@@H]1c1ccccc1N(CCS(=O)(=O)c1ccccc1)C2=O` , name the class its composite z-score places it in.
Result: High

Task: Continue with `O=C1NCC(=O)N2[C@@H]1C[C@@H](C(=O)O)[C@H]2c1ccc(O)cc1`
Result: Medium

Task: Continue with O=C1NC(=O)C2C1C=CC(C(O)c1c(F)cccc1Cl)N2Nc1ccccn1 (centres undefined)
Result: Medium

====

Assay: small-molecule microarray binders of probe aXIP, primary screen, biochemical, NeuroSMM set, 635/667 nm fluorescence (AID 1119);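 further: probe is the protein aXip251-270 applied at 1 µg/mL to compound-printed slides; binding of probe to printed compounds measured as 667 nm fluorescence plus signal to noise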
Conditions: higher = more signal, called active from +8 up or from −8 down
What composite Z-score was measured for each of the following?
One number for each entry.

# MOLECULE, composite Z-score
records = [
    ("O=C1O[C@H](c2ccccc2)[C@H](c2ccccc2)N2[C@H]1[C@@H](C(=O)O)[C@]1(C(=O)Nc3ccccc31)[C@H]2c1ccc(O)cc1", -0.0012),
    ("O=C1NC(=O)C2C1C=CC(C(O)c1c(F)cccc1Cl)N2Nc1ccccn1 (stereo not given)", -0.527),
    ("CC(C)(C)OC(=O)CC[C@]1(C(=O)NCCN2CCOCC2)N=C(c2ccc(OCCCO)cc2)O[C@H]1c1ccccc1", -0.985),
    ("CCCN1C(=O)[C@]2(Cc3ccccc3)N=C(c3ccc(OCCCO)cc3)O[C@@H]2c2ccccc21", -0.659),
    ("CC(C)CNC(=O)[C@@H]1c2ccccc2C(=O)N(Cc2cc(F)cc(C(F)(F)F)c2)[C@H]1c1ccc(CO)cc1", -0.161),
]

Provide each entry's composite Z-score from the list below.
1. COc1ccc(C(O)C2C=CC3C(=O)N(c4ccccc4)C(=O)C3N2Nc2ccc(C#N)cc2)c2ccccc12 (stereo not given)
2. CC(C)(C)OC(=O)CC[C@@]1(C(=O)O)N=C(c2ccc(OCCCO)cc2)O[C@@H]1c1ccccc1CN=[N+]=[N-]
3. COc1cc2c(cc1OC)CN(C(=O)[C@H]1[C@@H]3C(=O)O[C@@H](c4ccccc4)[C@@H](c4ccccc4)N3[C@@H](c3ccc(OCCO)cc3)[C@]13C(=O)Nc1ccc(C#CCCO)cc13)CC2
4. CN1C(=O)C2C=CC(C(O)C3CCCCC3)N(N3CCCCC3)C2C1=O (stereo not given)
5. CCCCN1CC=CC23O[C@@H]4/C=C\CCC(C)OC(=O)C4[C@H]2C(=O)N(CCCCCCO)[C@@H]3C1=O (stereo not given in full)
6. CN(C)CCCCNC(=O)[C@H]1C[C@H]2C(=O)N3CCC[C@H]3C(=O)N2[C@H]1c1ccc(O)cc1
7. COC(=O)Cn1c(C(=O)N2CCCC2)cc2c1C[C@H]1CN(C(=O)c3ccccc3)[C@@](Cc3ccc(F)cc3)(C(=O)OC)[C@@H]21
8. CC(C)(C)N1CC=CC23O[C@@H]4C=CCOC(=O)[C@@H]4[C@H]2C(=O)N(CCCO)[C@@H]3C1=O (stereo not given in full)

Result:
1. 1.3
2. 0.242
3. 0.524
4. 1.56
5. -0.59
6. 0.11
7. -0.14
8. 0.701

Provide each entry's composite Z-score from the list below.
1. CC(C)NC(=O)[C@@]1(C)c2ccccc2C(=O)N(C(C)C)[C@H]1c1ccc(CO)cc1
2. COCCOC(=O)N1C(=O)[C@@]2(c3cc(C#Cc4ccc(OC)cc4)ccc31)[C@H](C(=O)N1CCCCCCC1)[C@H]1C(=O)O[C@H](c3ccccc3)[C@H](c3ccccc3)N1[C@@H]2c1ccc(O)cc1

Result:
1. 0.22
2. 0.527

====

Target: Dihydroorotate dehydrogenase (quinone), mitochondrial (Plasmodium falciparum (isolate 3D7)) (UniProt Q08210)
Sequence (Q08210 whole entry, looked up): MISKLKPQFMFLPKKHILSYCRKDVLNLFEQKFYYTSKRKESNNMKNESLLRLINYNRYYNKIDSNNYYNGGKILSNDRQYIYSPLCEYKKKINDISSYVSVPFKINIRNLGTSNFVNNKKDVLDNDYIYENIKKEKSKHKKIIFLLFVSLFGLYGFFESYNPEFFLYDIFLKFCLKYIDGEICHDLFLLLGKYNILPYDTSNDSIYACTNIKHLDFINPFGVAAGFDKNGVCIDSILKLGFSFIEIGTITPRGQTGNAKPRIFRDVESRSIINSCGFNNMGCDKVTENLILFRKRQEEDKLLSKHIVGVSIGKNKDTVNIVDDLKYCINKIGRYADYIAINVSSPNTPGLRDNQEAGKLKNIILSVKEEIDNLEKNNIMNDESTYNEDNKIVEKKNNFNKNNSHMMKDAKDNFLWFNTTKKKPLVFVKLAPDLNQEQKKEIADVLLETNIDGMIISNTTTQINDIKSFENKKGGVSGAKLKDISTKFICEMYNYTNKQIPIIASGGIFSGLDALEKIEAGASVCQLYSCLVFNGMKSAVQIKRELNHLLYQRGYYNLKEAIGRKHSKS
Experiment: PfDHODH enzyme inhibitors, primary screen, biochemical, C-terminal His tag, absorbance 600 nm (AID 1175);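 further: recombinant parasite enzyme with a five histidine tag at its C terminus; test concentration not given here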
Settings: DCIP absorbance 600 nm, higher = more signal, called active from +8 up or from −8 down
The source made the active and inactive calls.
What composite z-score was measured for each of the following?

# COMPOUND, composite z-score
rows = [
    ("CC(C)(C)OC(=O)CC[C@@]1(C(=O)O)N=C(c2ccc(OCCCO)cc2)O[C@@H]1c1ccccc1", "0.904 (inactive)"),
    ("C[C@]1(C(=O)O)c2ccccc2C(=O)N(Cc2ccccc2)[C@H]1c1ccc(CO)cc1", "0.798 (inactive)"),
    ("CC(C)C(O)C1C=CC2C(=O)N(C)C(=O)C2N1Nc1ccccc1 (configuration not stated)", "-0.482 (inactive)"),
    ("COc1ccc([Si](C)(C)[C@H]2[C@H](CC(=O)N3Cc4ccccc4C[C@H]3CO)O[C@@]3(C(=O)N(Cc4cccc(N5CCCCC5=O)c4)c4ccccc43)[C@@H]2C)cc1", "-0.614 (inactive)"),
    ("COCCCNC(=O)[C@]1(CCC(=O)OC(C)(C)C)N=C(c2ccc(OCCCO)cc2)O[C@@H]1c1ccccc1", "0.152 (inactive)"),
    ("CCOC(=O)[C@H]1C/C=C/C[C@H](C(=O)OCC)C(=O)O[C@H]2[C@@H](OC)O[C@H](CO)[C@@H](OC(=O)Nc3ccc(OC)cc3)[C@@H]2OC1=O", "0.214 (inactive)"),
]

Task: Query (compound): `C[C@]1(C(=O)NC2CC2)c2ccccc2C(=O)N(Cc2ccc(OC(F)(F)F)cc2)[C@H]1c1ccc(CO)cc1` ; field requested: composite z-score
Result: 0.0758 (inactive)

====

Assay: A549 cell viability effects, profiling panel, calcein-AM fluorescence, 48 h, basal (AID 1162); further: test concentration not given here
Conditions: higher = more signal
Would you mind labelling by z-score? At or over -0.3 is criterion met, under is criterion not met.

# COMPOUND, CAT
rows = [
    ("COCCOC(=O)N1C(=O)[C@@]2(c3cc(C#Cc4ccc(OC)cc4)ccc31)[C@H](C(=O)N1CCCCCCC1)[C@H]1C(=O)O[C@H](c3ccccc3)[C@H](c3ccccc3)N1[C@@H]2c1ccc(O)cc1", "criterion not met"),
]

Task: State whether the measured z-score reaches -0.3, counting equality as reaching it, for `NC(=O)NCC#Cc1ccc2c(c1)[C@]1(C(=O)N2)[C@H](C(=O)Nc2nc3ccccc3s2)[C@H]2C(=O)O[C@H](c3ccccc3)[C@H](c3ccccc3)N2[C@@H]1c1ccc(O)cc1`
Result: criterion met

Task: Continue with CC(C)N1CC=CC23O[C@@H]4C=CCOC(=O)[C@@H]4[C@H]2C(=O)N(C(C)CO)[C@@H]3C1=O (stereo not given in full)
Result: criterion not met

Task: Continue with `C=CCN1C(=O)[C@@]2(O[C@@H](CCn3cc([C@H](O)c4ccccc4)nn3)[C@H]([Si](C)(C)c3ccc(OC)cc3)[C@H]2C)c2ccccc21`
Result: criterion not met

Task: Continue with `C=CCOC(=O)[C@@H]1[C@H]2C(=O)O[C@H](c3ccccc3)[C@H](c3ccccc3)N2[C@H](c2ccc(OCCOC(=O)[C@H]3C[C@H]4C(=O)N[C@@H](CCCCN(C)C)C(=O)N4[C@H]3c3cccc(OCCO)c3)cc2)[C@@]12C(=O)Nc1ccc(I)cc12`
Result: criterion met

====

What composite z-score was measured for each of the following?
Test: small-molecule microarray binders of probe aShh, primary screen, biochemical, biotinylated probe, 635/667 nm fluorescence (AID 1114);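 further: probe is biotin-labelled aShh protein from a stem cell growth factor screen; measures binding of labelled protein to compounds printed on the slide; score merges feature fluorescence at 667 nm with signal-to-noise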
Conditions: higher = more signal
Give bare numbers.

Past entries and their recorded results:
# MOLECULE, QUANTITATIVE RESULT
rows = [
    ("COc1ccc([Si](C)(C)[C@H]2[C@H](CCn3cc(CCO)nn3)O[C@@]3(C(=O)N(Cc4ccc(N5C(=O)c6cccc7cccc5c67)cc4)c4ccccc43)[C@@H]2C)cc1", 0.0121),
    ("CCOC(=O)C1=CC[C@@H](c2ccccc2C(F)(F)F)N(S(=O)(=O)c2ccc(C)cc2)C1", 0.584),
    ("CN(C)C(=O)[C@@]1(Cc2ccccc2N=[N+]=[N-])COC(c2ccc(OCCCO)cc2)=N1", 0.661),
    ("NC(=O)N1C(=O)C2C(C1=O)C1C=C(c3ccc(CO)cc3)C2C(C2CC2)N1Cc1sc2ccccc2c1Cl (stereo not given)", 0.0756),
]

Provide each entry's composite z-score from the list below.
1. COc1ccccc1CN1C(=O)c2ccccc2[C@](Cc2ccccc2I)(C(=O)NC(C)C)[C@@H]1c1ccc(CO)cc1
2. C=CCOC(=O)[C@@H]1[C@H]2C(=O)O[C@H](c3ccccc3)[C@H](c3ccccc3)N2[C@H](c2ccc(OCCOC(=O)[C@H]3C[C@H]4C(=O)N[C@@H](CCCCNC(C)=O)C(=O)N4[C@H]3c3cccc(OCCO)c3)cc2)[C@@]12C(=O)Nc1ccc(I)cc12
3. CC(C)C(O)C1C=CC2C(=O)N(C)C(=O)C2N1Nc1ccccc1 (stereo not given)

Result:
[0.131, 0.0725, 0.679]

Provide each entry's composite z-score from the list below.
1. C[C@]1(C(=O)O)c2ccccc2C(=O)N(Cc2ccccc2)[C@H]1c1ccc(CO)cc1
2. C=C(COC)/C(=C/C[C@@H](OC(=O)c1ccncc1)c1ccc(OCCO)cc1)c1cnc2ccccc2c1
3. CC(C)N1CC=CC23O[C@@H]4C=CCOC(=O)[C@@H]4[C@H]2C(=O)N(C(C)CO)[C@@H]3C1=O (stereo not given in full)
4. CN(C)CCCNC(=O)[C@@]1(c2ccc([N+](=O)[O-])cc2)CC(=O)N(CC23CC4CC(CC(C4)C2)C3)[C@@H]1c1ccc(CO)cc1
5. COC(=O)[C@@]1(Cc2ccc(OC)cc2)[C@H]2c3cc(C(=O)N4CCCC4)n(CCc4cc5ccccc5[nH]4)c3C[C@H]2CN1C(=O)c1ccccc1

Result:
-0.291
-0.167
0.0278
0.806
-0.19
